# Tested on: L1210 leukemia ip in BDF1 mice, survival T/C
# assay-overview: NCI In Vivo Anticancer Drug Screen. Data for tumor model L1210 Leukemia (intraperitoneal) in B6D2F1 (BDF1) mice
# condition-details: endpoint: mean survival time; dose: 200.0 mg/kg/injection; schedule: Q04DX003 (ip); vehicle: saline; higher = longer survival
Inconclusive results and toxic doses are left out.
Quick reference: T/C of the listed items.
measured-metric: T/C

CCC1(c2ccccc2)CN(C)C1=O (centres undefined)	95 % of control
CCCOc1ccc(=S)[nH]n1	106 % of control
c1ccc(Cn2nnc(-c3ccccc3)n2)cc1	94 % of control
O=c1[nH]cnc2c1nnn2C1CC(O)C(CO)O1 (centres undefined)	103 % of control
CC1=C(C)C(=O)c2c(OC(=O)c3ccccc3)ccc(OC(=O)c3ccccc3)c2C1=O	90 % of control
C#CC[N+]12CN3CN(CN(C3)C1)C2	98 % of control
O=C1c2ccccc2C(=O)N1CNc1ccc(Cc2ccc(NCN3C(=O)c4ccccc4C3=O)c(Cl)c2)cc1Cl	96 % of control
CS(=O)(=O)CS(C)(=O)=O	98 % of control
COc1cccc2c1CCC1=C2CC2C(=O)C1CCC2(C)O (centres undefined)	119 % of control
COc1cc(OC)c(Cl)c(OC)c1	100 % of control
O=CNC(O)C(Cl)(Cl)Cl (centres undefined)	95 % of control
O=NN1C(=O)N(CCCl)C(=O)C1(c1ccccc1)c1ccccc1	97 % of control
Cc1[nH]c(=S)sc1C	88 % of control
CN(C)CC(Cl)CCl (centres undefined)	107 % of control
